# system_tested: Alpha-1A adrenergic receptor
# experimental_protocol: Inhibition of alpha-1A adrenergic receptor (unknown origin)
assay_readout: pIC50
Notebook: values listed as pIC50 are -log10 of the concentration (mol/L).

Identify measured pIC50 associated with CCC[C@@H](CCO)Nc1nc(N)nc2cc(OC)ccc12
5.63

---

# experimental_protocol: Cmax in C57BL/6J mouse liver at 3 mg/kg, po by LC-MS analysis
# Assay type: ADME, organism-based
# Design: dose 3 mg/kg, route oral
assay_readout: Cmax (ng/g)
Your answer is read as ng/g, so omit the unit and give the number.

Using the record for CCC[C@@H](CCO)Nc1nc(N)nc2c(F)cccc12 , state its measured Cmax.
385

---

# experimental_protocol: Solubility of the compound in FaSSIF
# Assay type: physicochemical
assay_readout: solubility

Complete the entry with solubility for CCC[C@@H](CCO)Nc1nc(N)nc2c(F)cccc12
> 4000 µg/mL

---

# experimental_protocol: AUC (0 to last) in cynomolgus monkey plasma at 9 mg/kg, po by LC-MS analysis
# Type: ADME, organism-based, Macaca fascicularis
# Set-up: dose 9 mg/kg, route oral, time 0 - last
assay_readout: AUC(0-t) (ng·h/mL)
Give the value, in units of ng·h/mL, as a plain number.

Report AUC(0-t), nothing else, for this molecule: CCC[C@@H](CCO)Nc1nc(N)nc2c(F)cccc12
4050

---

# experimental_protocol: Ratio of drug level in Sprague-Dawley rat liver to plasma at 10 mg/kg, po
assay_readout: Kp

Output measured Kp for this item: CCC[C@@H](CCO)Nc1nc(N)nc2c(F)cccc12
16

---

# experimental_protocol: Tmax in Sprague-Dawley rat plasma at 10 mg/kg, po
# Assay type: ADME, organism-based
assay_readout: Tmax (min)
Express it in min; write the number only.

Output measured Tmax for this item: CCC[C@@H](CCO)Nc1nc(N)nc2c(F)cccc12
30

---

# experimental_protocol: Stability in human hepatocytes assessed compound turnover at 1 uM after 60 mins
# Format: ADME, cell-based, Hepatocyte
# measurement_conditions: read-out: Drug metabolism
assay_readout: metabolised at 1 h, 1 µM (%)
Give the quantity in %, number only.

Using the record for CCC[C@@H](CCO)Nc1nc(N)nc2c(F)cccc12 , state its measured metabolised at 1 h, 1 µM.
35

---

# system_tested: UniProt:Q9NYK1
# Sequence (whole entry): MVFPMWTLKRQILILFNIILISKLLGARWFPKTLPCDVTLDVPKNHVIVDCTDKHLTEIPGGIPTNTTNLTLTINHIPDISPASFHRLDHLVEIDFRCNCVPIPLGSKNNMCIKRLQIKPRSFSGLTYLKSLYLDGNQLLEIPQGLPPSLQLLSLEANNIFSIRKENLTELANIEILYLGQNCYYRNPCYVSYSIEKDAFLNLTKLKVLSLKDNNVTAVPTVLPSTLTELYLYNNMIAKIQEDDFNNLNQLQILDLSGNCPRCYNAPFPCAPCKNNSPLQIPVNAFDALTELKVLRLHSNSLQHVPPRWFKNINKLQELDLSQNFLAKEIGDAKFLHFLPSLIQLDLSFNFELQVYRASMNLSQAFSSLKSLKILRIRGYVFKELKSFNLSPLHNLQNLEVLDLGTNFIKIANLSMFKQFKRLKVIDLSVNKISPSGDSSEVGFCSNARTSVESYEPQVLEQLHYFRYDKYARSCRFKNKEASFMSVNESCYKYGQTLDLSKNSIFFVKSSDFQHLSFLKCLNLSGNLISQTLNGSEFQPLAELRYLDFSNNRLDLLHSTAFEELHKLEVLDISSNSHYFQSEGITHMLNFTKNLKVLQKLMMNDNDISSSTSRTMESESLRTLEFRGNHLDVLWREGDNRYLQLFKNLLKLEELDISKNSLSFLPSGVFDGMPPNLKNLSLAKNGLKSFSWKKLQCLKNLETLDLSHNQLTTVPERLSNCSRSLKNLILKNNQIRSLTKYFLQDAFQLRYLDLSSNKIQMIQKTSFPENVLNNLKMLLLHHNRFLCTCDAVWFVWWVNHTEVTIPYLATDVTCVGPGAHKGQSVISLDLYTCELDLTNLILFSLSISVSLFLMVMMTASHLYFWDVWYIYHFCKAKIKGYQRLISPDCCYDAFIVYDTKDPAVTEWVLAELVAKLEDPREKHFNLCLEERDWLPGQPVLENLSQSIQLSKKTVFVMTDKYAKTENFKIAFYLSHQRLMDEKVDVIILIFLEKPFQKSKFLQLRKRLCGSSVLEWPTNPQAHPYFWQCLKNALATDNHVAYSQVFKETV
# experimental_protocol: Agonist activity at TLR7 in human PBMC assessed as suppression of HCV replicon replication in human HuH7 luc/neo cells harboring RNA encoding bicistronic expression construct comprising wild type HCV type 1b NS3-NS5B regions exposed to conditioned media from compound treated PBMCs after 24 hrs by luciferase reporter gene assay
# Format: cell-based
assay_readout: log10(MEC) (log10 of the value in µM)
A difference of one corresponds to tenfold MEC; all values are log10 with MEC in µM.

# return recorded log10(MEC) for entry CCC[C@@H](CCO)Nc1nc(N)nc2cc(OC)ccc12
-0.30

Hello, please tell me recorded log10(MEC) for this one: CC[C@@H](CO)Nc1nc(N)nc2ccccc12
0.36

Please report log10(MEC) for the following molecule: CCCC[C@@H](CO)Nc1nc(N)nc2ccccc12
-1.40

Answer with the recorded log10(MEC) for the molecule listed here: CCC[C@@H](CCO)Nc1nc(N)nc2c(F)cccc12
-0.60

Please indicate log10(MEC) recorded for CC(C)C[C@@H](CO)Nc1nc(N)nc2ccccc12
-0.15

// fetch log10(MEC) given entry CCCC[C@@H](CCO)Nc1nc(N)nc2c(F)cccc12
-1.30

Tell me its log10(MEC) given CCC[C@@H](CCO)Nc1nc(N)nc2cc(F)ccc12 as the entry.
0.68

For CCC[C@@H](CCO)Nc1nc(N)nc2ccccc12 , write its log10(MEC).
-0.42

Look up and report measured log10(MEC) for this entry: CCCC[C@@H](CCO)Nc1nc(N)nc2cc(C)ccc12
-1.70

In one line, give reported log10(MEC) of the entry CCC[C@@H](CCO)Nc1nc(N)nc2cc(C)ccc12 .
-0.41

Give the value of log10(MEC) reported for the following: CCCC[C@@H](CCO)Nc1nc(N)nc2cc(OC)ccc12
-1.40

Please indicate log10(MEC) recorded for CCC[C@@H](CO)Nc1nc(N)nc2ccccc12
-1.40

---

# experimental_protocol: Solubility of the compound in FeSSIF
# Type: physicochemical
assay_readout: solubility

Input CCC[C@@H](CCO)Nc1nc(N)nc2c(F)cccc12 , output reported solubility.
> 4000 µg/mL

---

# experimental_protocol: Cmax in cynomolgus monkey plasma at 3 mg/kg, po by LC-MS analysis
# Format: ADME, organism-based, Macaca fascicularis
# Parameters: dose 3 mg/kg, route oral
assay_readout: Cmax (ng/mL)
Field: numeric (ng/mL). Do not append units.

Indicate its recorded Cmax; the compound in question is CCC[C@@H](CCO)Nc1nc(N)nc2c(F)cccc12
142

---

# experimental_protocol: Cmax in cynomolgus monkey plasma at 1 mg/kg, po by LC-MS analysis
# Type: ADME, organism-based, Macaca fascicularis
# Parameters: dose 1 mg/kg, route oral
assay_readout: Cmax (ng/mL)
Dear colleague, please return just the value in ng/mL, with no unit written.

Supply recorded Cmax for CCC[C@@H](CCO)Nc1nc(N)nc2c(F)cccc12 here.
38

---

Assignment: determine reported MEC for the given compounds.
# system_tested: UniProt Q9NYK1
# experimental_protocol: Agonist activity at TLR7 in human PBMC assessed as suppression of HCV replicon replication in human HuH7 luc/neo cells harboring RNA encoding bicistronic expression construct comprising wild type HCV type 1b NS3-NS5B regions exposed to conditioned media from compound treated PBMCs after 24 hrs by luciferase reporter gene assay
# Format: cell-based
Report the value in µM with no unit label.

State its MEC: CCCC[C@@H](CCO)Nc1nc(N)nc2ccc(OC)cc12
0.88

Consider the compound CCCC[C@@H](CCO)Nc1nc(N)nc2cccc(F)c12 and give its recorded MEC.
0.06

Given the compound CC(C)C[C@@H](CCO)Nc1nc(N)nc2ccccc12 , write its reported MEC.
0.55

Please list MEC recorded for the compound CC[C@H](C)[C@@H](CO)Nc1nc(N)nc2ccccc12
0.14

For the compound CCC[C@H](CO)Nc1nc(N)nc2ccccc12 , give its reported MEC.
2.36

Indicate its recorded MEC; the compound in question is CCCC[C@@H](CCO)Nc1nc(N)nc2cccc(C)c12
0.02

---

# experimental_protocol: Cmax in C57BL/6J mouse plasma at 3 mg/kg, po by LC-MS analysis
# Type: ADME, organism-based
# Parameters: dose 3 mg/kg, route oral
assay_readout: Cmax (ng/mL)
Entry rule: numbers only, all in ng/mL.

Provide only the value of recorded Cmax for CCC[C@@H](CCO)Nc1nc(N)nc2c(F)cccc12
22
